target: human ERβ (Homo sapiens (Human), UniProt Q92731); assay: Competitive steroid binding assay, recombinant human ERβ, [3H]E2 as labeled ligand; conditions: Cheng and Prusoff from measured IC50
Sequence (Q92731 whole entry): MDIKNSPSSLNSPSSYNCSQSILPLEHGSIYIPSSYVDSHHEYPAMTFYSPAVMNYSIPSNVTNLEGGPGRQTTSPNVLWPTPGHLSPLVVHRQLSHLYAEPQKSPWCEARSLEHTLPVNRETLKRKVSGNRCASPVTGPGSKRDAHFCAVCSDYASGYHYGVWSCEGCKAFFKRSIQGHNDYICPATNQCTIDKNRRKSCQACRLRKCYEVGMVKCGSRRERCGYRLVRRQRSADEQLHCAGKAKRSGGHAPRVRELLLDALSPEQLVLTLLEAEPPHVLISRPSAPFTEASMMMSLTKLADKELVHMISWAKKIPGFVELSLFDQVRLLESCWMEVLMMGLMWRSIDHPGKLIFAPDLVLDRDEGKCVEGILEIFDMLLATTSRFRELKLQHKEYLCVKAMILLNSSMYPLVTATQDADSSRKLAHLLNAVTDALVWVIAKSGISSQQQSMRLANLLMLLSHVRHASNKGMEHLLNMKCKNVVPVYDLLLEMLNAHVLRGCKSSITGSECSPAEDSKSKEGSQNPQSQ

# molecule, Ki (nM)
records = [
    ("C[C@]12CC[C@@H]3c4ccc(O)cc4CC[C@H]3[C@@H]1[C@@H](O)[C@@H](O)[C@@H]2O [E4]", 19),
]

====

biological target: human ERα (Homo sapiens (Human)); test: Competitive steroid binding assay, recombinant human ERα, [3H]E2 as labeled ligand; conditions: Cheng and Prusoff from measured IC50
Sequence (P03372 whole entry): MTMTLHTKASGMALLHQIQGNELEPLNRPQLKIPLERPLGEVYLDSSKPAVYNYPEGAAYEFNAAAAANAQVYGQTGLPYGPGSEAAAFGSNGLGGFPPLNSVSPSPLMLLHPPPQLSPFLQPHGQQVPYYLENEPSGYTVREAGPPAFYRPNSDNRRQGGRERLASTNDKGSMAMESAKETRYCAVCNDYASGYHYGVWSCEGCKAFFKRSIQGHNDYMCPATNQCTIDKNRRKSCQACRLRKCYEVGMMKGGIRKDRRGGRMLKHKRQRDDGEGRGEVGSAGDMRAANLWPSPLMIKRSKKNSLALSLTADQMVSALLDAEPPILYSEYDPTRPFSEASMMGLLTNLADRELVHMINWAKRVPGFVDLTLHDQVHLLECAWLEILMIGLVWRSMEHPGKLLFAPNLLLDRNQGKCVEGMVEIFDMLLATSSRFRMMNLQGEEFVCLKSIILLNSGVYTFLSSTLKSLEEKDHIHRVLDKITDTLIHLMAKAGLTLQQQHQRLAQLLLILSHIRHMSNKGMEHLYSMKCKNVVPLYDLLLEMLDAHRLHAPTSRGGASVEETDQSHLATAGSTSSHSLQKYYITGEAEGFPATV
pKi: −log10 of the molar value.
attribute-measured: pKi

# compound, measured-value
data = [
    ("C[C@]12CC[C@@H]3c4ccc(O)cc4CC[C@H]3[C@@H]1[C@@H](O)[C@@H](O)[C@@H]2O [E4]", 8.31),
]

Numbers sourced from patent US9040509B2.
